Where do these numbers come from? They come from patent US20090304746A1.

- Tested on: PBMC from HCV-infected patients
- measurement description: CTL recall: recognition in vitro by PBMC from HCV-infected patients, 51Cr release
- Assay type: cell-based, human
- details: responders/tested
Item-by-item account of Immunogenicity Human, Chisari
observable: Immunogenicity Human, Chisari

• CC(C)C[C@H](NC(=O)[C@@H](N)CCC(N)=O)C(=O)N[C@@H](Cc1ccccc1)C(=O)N[C@H](C(=O)N[C@@H](Cc1ccccc1)C(=O)N[C@@H](CO)C(=O)N1CCC[C@H]1C(=O)N[C@@H](CCCNC(=N)N)C(=O)N[C@@H](CCCNC(=N)N)C(=O)O)[C@@H](C)O [Peptide 1.0955] = 6/12
• C[C@@H](O)[C@H](NC(=O)[C@@H](N)CCCCN)C(=O)N[C@@H](CO)C(=O)N[C@@H](CCC(=O)O)C(=O)N[C@@H](CCCNC(=N)N)C(=O)N[C@@H](CO)C(=O)N[C@@H](CCC(N)=O)C(=O)N1CCC[C@H]1C(=O)N[C@@H](CCCNC(=N)N)C(=O)O [Peptide 1.0952] = 3/12
• CC(C)C[C@H](NC(=O)[C@H](C)NC(=O)CNC(=O)[C@H](C)NC(=O)[C@@H](N)C(C)C)C(=O)N[C@H](C(=O)N[C@@H](C)C(=O)N[C@@H](Cc1ccccc1)C(=O)N[C@@H](CCCCN)C(=O)O)C(C)C [Peptide 24.0090] = 6/12

###

Item-by-item account of Immunogenicity Human, overall
- Tested on: PBMC from HCV-infected patients
- measurement description: CTL recall: recognition in vitro by PBMC from HCV-infected patients, 51Cr release
- Type: cell-based, human
- details: A3-supertype binders; sum over all groups, positive over total examined
observable: Immunogenicity Human, overall

• CSCC[C@H](NC(=O)[C@@H](N)CCCNC(=N)N)C(=O)N[C@@H](Cc1ccc(O)cc1)C(=O)N[C@H](C(=O)NCC(=O)NCC(=O)N[C@H](C(=O)N[C@@H](CCC(=O)O)C(=O)N[C@@H](Cc1c[nH]cn1)C(=O)N[C@@H](CCCNC(=N)N)C(=O)O)C(C)C)C(C)C [Peptide 1073.13] = 11/38
• CC(C)C[C@H](NC(=O)[C@H](C)NC(=O)CNC(=O)[C@H](C)NC(=O)[C@@H](NC(=O)CN)C(C)C)C(=O)N[C@H](C(=O)N[C@@H](C)C(=O)N[C@@H](Cc1ccccc1)C(=O)N[C@@H](CCCCN)C(=O)O)C(C)C [Peptide 1073.10] = 11/38
• CC[C@H](C)[C@H](NC(=O)[C@@H](N)CC(C)C)C(=O)N[C@@H](Cc1ccccc1)C(=O)N[C@@H](CS)C(=O)N[C@@H](Cc1c[nH]cn1)C(=O)N[C@@H](CO)C(=O)N[C@@H](CCCCN)C(=O)N[C@@H](CCCCN)C(=O)N[C@@H](CCCCN)C(=O)O [Peptide 1.0123] = 13/38
• CC(C)C[C@H](NC(=O)[C@H](C)NC(=O)CNC(=O)[C@H](C)NC(=O)[C@@H](N)C(C)C)C(=O)N[C@H](C(=O)N[C@@H](C)C(=O)N[C@@H](Cc1ccccc1)C(=O)N[C@@H](CCCCN)C(=O)O)C(C)C [Peptide 24.0090] = 11/38
• CC(C)C[C@H](NC(=O)[C@@H](N)CCC(N)=O)C(=O)N[C@@H](Cc1ccccc1)C(=O)N[C@H](C(=O)N[C@@H](Cc1ccccc1)C(=O)N[C@@H](CO)C(=O)N1CCC[C@H]1C(=O)N[C@@H](CCCNC(=N)N)C(=O)N[C@@H](CCCNC(=N)N)C(=O)O)[C@@H](C)O [Peptide 1.0955] = 8/38
• CC(C)C[C@H](NC(=O)[C@@H](N)CCCNC(=N)N)C(=O)NCC(=O)N[C@H](C(=O)N[C@@H](CCCNC(=N)N)C(=O)N[C@@H](C)C(=O)N[C@H](C(=O)N[C@@H](CCCNC(=N)N)C(=O)N[C@@H](CCCCN)C(=O)O)[C@@H](C)O)C(C)C [Peptide 1073.11] = 13/38
• C[C@@H](O)[C@H](NC(=O)[C@@H](N)CCCCN)C(=O)N[C@@H](CO)C(=O)N[C@@H](CCC(=O)O)C(=O)N[C@@H](CCCNC(=N)N)C(=O)N[C@@H](CO)C(=O)N[C@@H](CCC(N)=O)C(=O)N1CCC[C@H]1C(=O)N[C@@H](CCCNC(=N)N)C(=O)O [Peptide 1.0952] = 6/38

###

- Tested on: PBMC from HCV-infected patients
- measurement description: CTL recall: recognition in vitro by PBMC from HCV-infected patients, 51Cr release
- Format: cell-based, human
- details: A3-supertype binders; positive responses over total number examined
observable: Immunogenicity Human, Pape

* CC(C)C[C@H](NC(=O)[C@@H](N)CCCNC(=N)N)C(=O)NCC(=O)N[C@H](C(=O)N[C@@H](CCCNC(=N)N)C(=O)N[C@@H](C)C(=O)N[C@H](C(=O)N[C@@H](CCCNC(=N)N)C(=O)N[C@@H](CCCCN)C(=O)O)[C@@H](C)O)C(C)C [Peptide 1073.11] | 1/6
* CC(C)C[C@H](NC(=O)[C@H](C)NC(=O)CNC(=O)[C@H](C)NC(=O)[C@@H](NC(=O)CN)C(C)C)C(=O)N[C@H](C(=O)N[C@@H](C)C(=O)N[C@@H](Cc1ccccc1)C(=O)N[C@@H](CCCCN)C(=O)O)C(C)C [Peptide 1073.10] | 2/6
* CC(C)C[C@H](NC(=O)[C@H](C)NC(=O)CNC(=O)[C@H](C)NC(=O)[C@@H](N)C(C)C)C(=O)N[C@H](C(=O)N[C@@H](C)C(=O)N[C@@H](Cc1ccccc1)C(=O)N[C@@H](CCCCN)C(=O)O)C(C)C [Peptide 24.0090] | 0/4
* C[C@@H](O)[C@H](NC(=O)[C@@H](N)CCCCN)C(=O)N[C@@H](CO)C(=O)N[C@@H](CCC(=O)O)C(=O)N[C@@H](CCCNC(=N)N)C(=O)N[C@@H](CO)C(=O)N[C@@H](CCC(N)=O)C(=O)N1CCC[C@H]1C(=O)N[C@@H](CCCNC(=N)N)C(=O)O [Peptide 1.0952] | 0/6
* CC(C)C[C@H](NC(=O)[C@@H](N)CCC(N)=O)C(=O)N[C@@H](Cc1ccccc1)C(=O)N[C@H](C(=O)N[C@@H](Cc1ccccc1)C(=O)N[C@@H](CO)C(=O)N1CCC[C@H]1C(=O)N[C@@H](CCCNC(=N)N)C(=O)N[C@@H](CCCNC(=N)N)C(=O)O)[C@@H](C)O [Peptide 1.0955] | 1/6
* CC[C@H](C)[C@H](NC(=O)[C@@H](N)CC(C)C)C(=O)N[C@@H](Cc1ccccc1)C(=O)N[C@@H](CS)C(=O)N[C@@H](Cc1c[nH]cn1)C(=O)N[C@@H](CO)C(=O)N[C@@H](CCCCN)C(=O)N[C@@H](CCCCN)C(=O)N[C@@H](CCCCN)C(=O)O [Peptide 1.0123] | 2/6
* CSCC[C@H](NC(=O)[C@@H](N)CCCNC(=N)N)C(=O)N[C@@H](Cc1ccc(O)cc1)C(=O)N[C@H](C(=O)NCC(=O)NCC(=O)N[C@H](C(=O)N[C@@H](CCC(=O)O)C(=O)N[C@@H](Cc1c[nH]cn1)C(=O)N[C@@H](CCCNC(=N)N)C(=O)O)C(C)C)C(C)C [Peptide 1073.13] | 1/6

###

- System: PBMC from HCV-infected patients
- measurement description: CTL recall: recognition in vitro by PBMC from HCV-infected patients, 51Cr release
- Format: cell-based, human
- details: responders/tested
observable: Immunogenicity Human, Chisari

• CC(C)C[C@H](NC(=O)[C@H](C)NC(=O)CNC(=O)[C@H](C)NC(=O)[C@@H](NC(=O)CN)C(C)C)C(=O)N[C@H](C(=O)N[C@@H](C)C(=O)N[C@@H](Cc1ccccc1)C(=O)N[C@@H](CCCCN)C(=O)O)C(C)C [Peptide 1073.10] = 6/12
• CSCC[C@H](NC(=O)[C@@H](N)CCCNC(=N)N)C(=O)N[C@@H](Cc1ccc(O)cc1)C(=O)N[C@H](C(=O)NCC(=O)NCC(=O)N[C@H](C(=O)N[C@@H](CCC(=O)O)C(=O)N[C@@H](Cc1c[nH]cn1)C(=O)N[C@@H](CCCNC(=N)N)C(=O)O)C(C)C)C(C)C [Peptide 1073.13] = 4/12
• CC[C@H](C)[C@H](NC(=O)[C@@H](N)CC(C)C)C(=O)N[C@@H](Cc1ccccc1)C(=O)N[C@@H](CS)C(=O)N[C@@H](Cc1c[nH]cn1)C(=O)N[C@@H](CO)C(=O)N[C@@H](CCCCN)C(=O)N[C@@H](CCCCN)C(=O)N[C@@H](CCCCN)C(=O)O [Peptide 1.0123] = 4/12
• CC(C)C[C@H](NC(=O)[C@@H](N)CCCNC(=N)N)C(=O)NCC(=O)N[C@H](C(=O)N[C@@H](CCCNC(=N)N)C(=O)N[C@@H](C)C(=O)N[C@H](C(=O)N[C@@H](CCCNC(=N)N)C(=O)N[C@@H](CCCCN)C(=O)O)[C@@H](C)O)C(C)C [Peptide 1073.11] = 7/12
